# Procedure details: H1N1 influenza NS1A inhibitors, functional cell based assay (AID 504329)
# Measurement conditions: percent inhibition, at 12.5 µM, stronger effect = higher value
Hit rate of the full screen: of about 340,000 compounds, about 1,000 (0.29%) were called active. The list is a sample of the results. Results with a measured potency or affinity are listed apart.
Catalogue of molecules with associated inhibition
Number only, in %; omit the unit.

Below are worked cases with known answers.
N#CC(c1ccc(Cl)cc1)c1ccc2c(C(F)(F)F)cc(C(F)(F)F)nc2n1 (stereo unspecified) | 21.3
CN1CCN(C(c2ccc(F)cc2)c2ccc3cccnc3c2O)CC1 (stereo unspecified) | 7.02
O=C(CCNC(=O)c1ccccc1Cl)Nc1ccccc1N1CCCC1 | -8.83
Oc1c(C(c2ccc(Cl)cc2)N2CCCC2)cc(Cl)c2cccnc12 (stereo unspecified) | -6.42

Recorded inhibition of Cc1ccc(C(c2cc(Cl)c3cccnc3c2O)N2CCN(C)CC2)cc1 (stereo unspecified) , please.
5.08

If you can, please state the reported inhibition value of CC(C)CCn1nnnc1C(c1ccc(F)cc1)N1CCC(C(N)=O)CC1 (stereo unspecified) .
-2.77

###

# Procedure details: H1N1 influenza NS1A inhibitors, functional cell based assay (AID 504329)
# Measurement conditions: percent inhibition, at 12.5 µM, stronger effect = higher value
In all, about 340,000 compounds went through this assay and about 1,000 (0.29%) were called active. These entries were drawn from the full list. Measured potencies and affinities stand elsewhere.
Quick reference: inhibition of the listed items.
Output spec: scalar in %, unitless text.

Example entries begin here.
S=C(NCc1ccccc1)NCc1ccccn1 | 1.05
C=CCOC(=O)C1=C(C)Nc2nc3ccccc3n2C1c1ccncc1 (stereo unspecified) | -21.4
Cc1cc(C(=O)NC2CCCN(Cc3ccccc3F)C2)n[nH]1 (stereo unspecified) | -3.85
O=C(CN1CCN(c2ccccn2)CC1)Nc1ccc([N+](=O)[O-])cc1C(=O)Nc1ccccc1F | 12

Okay, now this molecule:
If you can, please state the reported inhibition value of Cc1ccc(N=Nc2[nH]c3ccccc3c2O)cc1 .
-4.85

###

Measured inhibition, listed per entry for reference.
# Procedure details: H1N1 influenza NS1A inhibitors, functional cell based assay (AID 504329)
# Measurement conditions: percent inhibition, at 12.5 µM, stronger effect = higher value
Among all 340,000 compounds or so, about 1,000 (0.29%) were called active. The list is a sample of the results. Entries with a potency or affinity are not part of this list.
The figure you give is taken to be in %; do not add the unit.

O=C(Nc1csnn1)OCc1ccccc1 | -22.9

May I ask what inhibition has been recorded for COc1cccc(CN(C)C(=O)c2cccc(OCc3ccccc3)c2)c1 ?
5.5

Endpoint output: inhibition of CCN(CC)c1ccc(CN2CC=C(c3ccc(F)cc3)CC2)cc1 . Value?
23.1

Any idea what its inhibition is? The compound is Cc1cccc(-n2c(O)c(C=Nc3cc(O)ccc3C)c3ccccc3c2=O)n1
3.61

###

# Procedure details: H1N1 influenza NS1A inhibitors, functional cell based assay (AID 504329)
# Measurement conditions: percent inhibition, at 12.5 µM, stronger effect = higher value
In all, about 340,000 compounds went through this assay and about 1,000 (0.29%) were called active. A selection follows. Measured potencies and affinities stand elsewhere.
Measured metric: inhibition (%)
Give just the number in %; leave the unit off.

Known results for compounds:
O=C(O)C1CCCCC1C(=O)Nc1ccc(S(=O)(=O)N2CCCCC2)cc1 (stereo unspecified) | 4.7
O=C(CN1C(=O)c2cccc3cccc1c23)NCC1CCCO1 (stereo unspecified) | 7.9
Cc1[nH]c2ccccc2c1C(=O)CNc1nccs1 | -1.86
Cc1cc(C)nc(NS(=O)(=O)c2ccc(NS(=O)(=O)c3ccc(C#N)cc3)cc2)n1 | -5.4
Oc1ccccc1C=NCCCCCCN=Cc1ccccc1O | -8.96

Requested read-out: inhibition. Entry: Cc1ccc(-c2nn(-c3ccccc3Cl)cc2C(=O)NCC2CCCO2)cc1 (stereo unspecified)
-0.44

Every entry's value here was drawn from PubChem BioAssay AID504329.
